- experimental_details: protein stability index of a GFP-peptide fusion (GPS, HEK-293T) (PSI 1-6); higher = more stable;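 note: 24-mer peptide tiles fused after GFP, lentivirally expressed, FACS-sorted into six equal bins by GFP/DsRed ratio, decoded by Illumina sequencing, PSI is the read-weighted mean bin number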
- condition: treatment: DMSO; c terminus: a fixed tail appended
Rule: protein stability index of 3 or more gives MET; anything lower gives NOT MET.

[
  {
    "sequence_code": "TGEKLLELNGHTQKITAIITFPSL [WDR41]",
    "label_value": "NOT MET"
  },
  {
    "sequence_code": "LHVWQITWAMRQRGTHAVVGVATA [SPSB1]",
    "label_value": "NOT MET"
  },
  {
    "sequence_code": "YIEMQTDPANCDYVIVSGAQRKEE [YJU2B]",
    "label_value": "MET"
  },
  {
    "sequence_code": "IHGGVVNIHENKRTGSLFKIWLVV [KLHDC10]",
    "label_value": "NOT MET"
  },
  {
    "sequence_code": "GHHLLKWIIKSNYQGLPVRCVKSI [SRPK2]",
    "label_value": "NOT MET"
  },
  {
    "sequence_code": "RVVCGIDSSMILTVPGQALACGSN [NEK8]",
    "label_value": "NOT MET"
  },
  {
    "sequence_code": "PQPHRNRAGLDLPTIDTGYDSQPQ [TRAF3IP2]",
    "label_value": "MET"
  },
  {
    "sequence_code": "VIGALLRFNQAILVSRHDPASRRR [LPCAT4]",
    "label_value": "NOT MET"
  },
  {
    "sequence_code": "LVPETEDDRKLAALLKFHTLDSYE [YJU2B]",
    "label_value": "MET"
  },
  {
    "sequence_code": "VKNVVSGGFPIIRDQIFRYVHDPE [FBXO3]",
    "label_value": "NOT MET"
  },
  {
    "sequence_code": "DYELLQMLQIVVGVRDSGSPPLHA [PCDHGC5]",
    "label_value": "NOT MET"
  },
  {
    "sequence_code": "WYFWGETFQNSVFVATFLRYAVVL [SCD]",
    "label_value": "MET"
  },
  {
    "sequence_code": "NTEERQKRQVTHFQFLSWPDYGVP [PTPN9]",
    "label_value": "MET"
  },
  {
    "sequence_code": "FAAEARYPIYVIPEPPPVSFQPYH [TENT5D]",
    "label_value": "NOT MET"
  },
  {
    "sequence_code": "KSSGKHYGQFTCEGCKSFFKRSVR [NR2F2]",
    "label_value": "NOT MET"
  },
  {
    "sequence_code": "PGGGDICMYRHALPPGFVLKKDKK [ZC3H15]",
    "label_value": "MET"
  },
  {
    "sequence_code": "HTGDKPYKCAECGKSFCHSTHLTV [ZNF8]",
    "label_value": "MET"
  },
  {
    "sequence_code": "TDRRVLLMFLDICSELNKLCQHFE [SPACA9]",
    "label_value": "NOT MET"
  },
  {
    "sequence_code": "PEPPAAVDFLEPDSGTCPEVDEEG [FCHO1]",
    "label_value": "MET"
  },
  {
    "sequence_code": "SFQDNLHNRKKHLNGLQHLKAKKV [ZMAT5]",
    "label_value": "MET"
  },
  {
    "sequence_code": "MGSTESSEGRRVSFGVDEEERVRV [CHCHD6]",
    "label_value": "MET"
  },
  {
    "sequence_code": "SDVHPVALNFMKGCLKMNPDDRLT [CDKL4]",
    "label_value": "MET"
  },
  {
    "sequence_code": "LRHDEVRTYFHEFGHVMHQICAQV [NLN]",
    "label_value": "NOT MET"
  },
  {
    "sequence_code": "NSQNEVNGWTCLHWACKRNHGQVV [ANKRD40]",
    "label_value": "NOT MET"
  },
  {
    "sequence_code": "RKLSSAVRSGIVEYLSLVKGGQDV [PRIM1]",
    "label_value": "NOT MET"
  },
  {
    "sequence_code": "PQEAAGAQGRAGAPVPEPPKEEQQ [EPB41L3]",
    "label_value": "MET"
  },
  {
    "sequence_code": "ENFDHNTLALILQIPTQNTQARQV [PPFIA4]",
    "label_value": "NOT MET"
  },
  {
    "sequence_code": "CSYVVTRTISCHVQNGTYLQRVLQ [EMID1]",
    "label_value": "NOT MET"
  },
  {
    "sequence_code": "MMSVNGQAKTHTDSSEKELEPEAA [ACBD3]",
    "label_value": "MET"
  },
  {
    "sequence_code": "GMFTFLSSVTAAVSGLLVGYELGI [SLC2A12]",
    "label_value": "NOT MET"
  },
  {
    "sequence_code": "LDEIPDDEDLDLIPPKSVNPTCMC [FAM219A]",
    "label_value": "MET"
  },
  {
    "sequence_code": "LVEETSCQQNMIQELIETNQQLRN [CEP70]",
    "label_value": "MET"
  },
  {
    "sequence_code": "KGAAAAAAASGAAGGGGGGAGAGA [INTS3]",
    "label_value": "MET"
  },
  {
    "sequence_code": "CAKYTYPVCSALLDPVLQAPGTGP [FANCE]",
    "label_value": "NOT MET"
  },
  {
    "sequence_code": "GKWQQQGDLQDTKENREEARFQDK [CHGB]",
    "label_value": "MET"
  }
]

* * *

- experimental_details: protein stability index of a GFP-peptide fusion (GPS, HEK-293T) (PSI 1-6); higher = more stable
- condition: treatment: DMSO; c terminus: a fixed tail appended
readout_kind: protein stability index

[
  {
    "sequence_code": "AMFLGDAAAHWYGGAEMRTQHWPI [MYORG]",
    "readout_kind": "protein stability index",
    "quantitative_result": 2.41
  },
  {
    "sequence_code": "RSEPIRPIDPAAWVSHTAAMTGTF [DVL3]",
    "readout_kind": "protein stability index",
    "quantitative_result": 2.99
  },
  {
    "sequence_code": "GKSGLRVSCLGLGTWVTFGGQITD [KCNAB2]",
    "readout_kind": "protein stability index",
    "quantitative_result": 2.2
  },
  {
    "sequence_code": "PTEGQGSLLTNWPSVPPTIKEEEN [MYBL2]",
    "readout_kind": "protein stability index",
    "quantitative_result": 5.46
  },
  {
    "sequence_code": "PNFNFNISHQGDYAVLAAEPELQV [AASDHPPT]",
    "readout_kind": "protein stability index",
    "quantitative_result": 4
  },
  {
    "sequence_code": "ALHHVHTHLILHRDLKTQNILLDK [NEK8]",
    "readout_kind": "protein stability index",
    "quantitative_result": 2.25
  },
  {
    "sequence_code": "LGPQVSLDPMKNVTCENGLPAVVS [LOXL2]",
    "readout_kind": "protein stability index",
    "quantitative_result": 4.3
  }
]

* * *

- experimental_details: protein stability index of a GFP-peptide fusion (GPS, HEK-293T) (PSI 1-6); higher = more stable
- condition: treatment: MLN4924 1 uM, 8 h; c terminus: a fixed tail appended
Below: a set of entries, each annotated with reported protein stability index.

[
  {
    "sequence_code": "GWLSVSDDLTSVTNHGYRVQVENP [TRIM35]",
    "protein stability index": 3.24
  },
  {
    "sequence_code": "RYNRKYLMCGGIAFWSLVTLGSSF [SPNS1]",
    "protein stability index": 2.77
  },
  {
    "sequence_code": "KGGNLRDKLDGNELDLSLSDLNEV [LRRC59]",
    "protein stability index": 5.11
  },
  {
    "sequence_code": "LAHAFQPGPGIGGDAHFDEDERWT [MMP1]",
    "protein stability index": 4.53
  },
  {
    "sequence_code": "NATDPDEGTNGQLDYSFGDHTSEA [PCDHGC5]",
    "protein stability index": 5.24
  }
]

* * *

- experimental_details: protein stability index of a GFP-peptide fusion (GPS, HEK-293T) (PSI 1-6); higher = more stable
- condition: treatment: DMSO; c terminus: a fixed tail appended
Rule: protein stability index of 3 or more gives true; anything lower gives false.

[
  {
    "sequence_code": "DLPSSLLLPEDMALRNLPPLRAAH [SMG5]",
    "label_value": "true"
  },
  {
    "sequence_code": "LYSQLLQAYKWSNKLQYHAGLASG [MED27]",
    "label_value": "true"
  },
  {
    "sequence_code": "KRRQLEDERRQLQHLKSKALRERW [PALM]",
    "label_value": "true"
  },
  {
    "sequence_code": "QDKSESLSDNATAFSNRSKQLRRQ [VAMP4]",
    "label_value": "true"
  },
  {
    "sequence_code": "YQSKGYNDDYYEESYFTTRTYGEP [EMD]",
    "label_value": "false"
  },
  {
    "sequence_code": "APPLPGAESFPGSQVMGSGRGSLS [PLEKHN1]",
    "label_value": "true"
  },
  {
    "sequence_code": "ISVQNYKQVCKIAALHGLEETKKL [KLHL14]",
    "label_value": "false"
  },
  {
    "sequence_code": "RIIYMLLITIATFQIAANLSMERY [SLC19A2]",
    "label_value": "true"
  },
  {
    "sequence_code": "QTQTVAAQAQALAAQAAAAAHAAQ [PI4K2A]",
    "label_value": "true"
  },
  {
    "sequence_code": "NKKRGWRRLAQEPLGLEVDQFLED [NOP53]",
    "label_value": "true"
  },
  {
    "sequence_code": "PRARRRLGSGPDRELRKPEEPENG [PWWP2B]",
    "label_value": "true"
  },
  {
    "sequence_code": "SLSSTATVLLVLEDEDPEEMPKSS [PCDHGC5]",
    "label_value": "true"
  },
  {
    "sequence_code": "LSCLHSVCEQCLQILYESCPKYKF [RNF208]",
    "label_value": "false"
  },
  {
    "sequence_code": "TALLSSGFSLEDPQTHSNRIYRMI [HSP90AB1]",
    "label_value": "false"
  },
  {
    "sequence_code": "NQWETPPEDLQTDLAKLVDQQNPT [ZNF449]",
    "label_value": "true"
  },
  {
    "sequence_code": "RRPSPVLRHLELLDEFARENIDSL [SCNN1D]",
    "label_value": "true"
  },
  {
    "sequence_code": "ILIELAMRGRIYLEPPTMRKKRLL [GOLPH3L]",
    "label_value": "false"
  },
  {
    "sequence_code": "LPTLSHIQEAQSAWKDDFALNSML [YJU2B]",
    "label_value": "true"
  },
  {
    "sequence_code": "EEDGGADEHEHPLTSELDPEKEQE [MIA2]",
    "label_value": "true"
  },
  {
    "sequence_code": "CWQGDPRVRPTFQEITSETEDLCE [RIPK4]",
    "label_value": "true"
  },
  {
    "sequence_code": "KDRRFAYGRSDVVVLCFSIANPNS [RHOBTB1]",
    "label_value": "false"
  }
]
